Experiment Notes: Plasma pharmacokinetics after i.v. and oral administration in male and female mice
Type: in vivo, FVB mice
Condition Label: FVB, mouse, plasma, oral; p.o. (5 mg/kg) vs i.v. (2 mg/kg), male; read-out: F (oral bioavailability)

{"Compound": "Nc1cc(C(F)(F)F)c(-c2cc(N3CCOCC3)nc(N3CCOCC3)n2)cn1 [buparlisib]", "Scale Unit": "%", "bioavailability": 103}

###

Experiment Notes: Plasma pharmacokinetics after i.v. and oral administration in male and female mice
Assay type: in vivo, FVB mice
Condition Label: FVB, mouse, plasma, iv; i.v. (2 mg/kg), female

{"Smiles Representation": "Nc1cc(C(F)(F)F)c(-c2cc(N3CCOCC3)nc(N3CCOCC3)n2)cn1", "half-life / h": 1.6}

###

Experiment Notes: Plasma pharmacokinetics after i.v. and oral administration in male and female mice
Format: in vivo, FVB mice
Condition Label: FVB, mouse, plasma, iv; i.v. (2 mg/kg), male
Experimental: Finally, we studied the pharmacokinetics of buparlisib in male and female mice and assessed the oral bioavailability in both genders by comparing the area-under-the-plasma concentration-time-curves (AUCs) following intravenous and oral administration. Both after oral and i.v. administration there was no difference in pharmacokinetics between male and female mice (Fig. 3C, Table 1). The pharmacokinetics of buparlisib were analysed in WT, Abcg2^−/−, Abcb1a/b^−/− and Abcb1a/b; Abcg2^−/− FVB mice. […]

{"Compound": "Nc1cc(C(F)(F)F)c(-c2cc(N3CCOCC3)nc(N3CCOCC3)n2)cn1 [buparlisib]", "half-life [h]": 1.67}

###

Experiment Notes: Plasma pharmacokinetics after i.v. and oral administration in male and female mice
Format: in vivo, FVB mice
Condition Label: FVB, mouse, plasma, po; p.o. (5 mg/kg), female

{"Smiles Representation": "Nc1cc(C(F)(F)F)c(-c2cc(N3CCOCC3)nc(N3CCOCC3)n2)cn1", "half-life (h)": 1.4}

###

Experiment Notes: Plasma pharmacokinetics after i.v. and oral administration in male and female mice
Format: in vivo, FVB mice
Condition Label: FVB, mouse, plasma, iv; i.v. (2 mg/kg), male; read-out: Vz
Method: Finally, we studied the pharmacokinetics of buparlisib in male and female mice and assessed the oral bioavailability in both genders by comparing the area-under-the-plasma concentration-time-curves (AUCs) following intravenous and oral administration. Both after oral and i.v. administration there was no difference in pharmacokinetics between male and female mice (Fig. 3C, Table 1). The pharmacokinetics of buparlisib were analysed in WT, Abcg2^−/−, Abcb1a/b^−/− and Abcb1a/b; Abcg2^−/− FVB mice. […]
Measured Attribute: Vd (L/kg)

{"Smiles Representation": "Nc1cc(C(F)(F)F)c(-c2cc(N3CCOCC3)nc(N3CCOCC3)n2)cn1", "Scale Unit": "L/kg", "Experimental Value": 0.8}

###

Experiment Notes: Plasma pharmacokinetics after i.v. and oral administration in male and female mice
Type: in vivo, FVB mice
Condition Label: FVB, mouse, plasma, po; p.o. (5 mg/kg), female; read-out: Vz/F

{"Smiles Representation": "Nc1cc(C(F)(F)F)c(-c2cc(N3CCOCC3)nc(N3CCOCC3)n2)cn1", "Vd/F": "0.63 L/kg"}

###

Experiment Notes: Plasma pharmacokinetics after i.v. and oral administration in male and female mice
Assay type: in vivo, FVB mice
Condition Label: FVB, mouse, plasma, oral; p.o. (5 mg/kg) vs i.v. (2 mg/kg), female; read-out: F (oral bioavailability)

{"Smiles Representation": "Nc1cc(C(F)(F)F)c(-c2cc(N3CCOCC3)nc(N3CCOCC3)n2)cn1", "bioavailability": "112%"}
